Molecular target: Sentrin-specific protease 6 (Homo sapiens, UniProt Q9GZR1)
Sequence (Q9GZR1 whole entry): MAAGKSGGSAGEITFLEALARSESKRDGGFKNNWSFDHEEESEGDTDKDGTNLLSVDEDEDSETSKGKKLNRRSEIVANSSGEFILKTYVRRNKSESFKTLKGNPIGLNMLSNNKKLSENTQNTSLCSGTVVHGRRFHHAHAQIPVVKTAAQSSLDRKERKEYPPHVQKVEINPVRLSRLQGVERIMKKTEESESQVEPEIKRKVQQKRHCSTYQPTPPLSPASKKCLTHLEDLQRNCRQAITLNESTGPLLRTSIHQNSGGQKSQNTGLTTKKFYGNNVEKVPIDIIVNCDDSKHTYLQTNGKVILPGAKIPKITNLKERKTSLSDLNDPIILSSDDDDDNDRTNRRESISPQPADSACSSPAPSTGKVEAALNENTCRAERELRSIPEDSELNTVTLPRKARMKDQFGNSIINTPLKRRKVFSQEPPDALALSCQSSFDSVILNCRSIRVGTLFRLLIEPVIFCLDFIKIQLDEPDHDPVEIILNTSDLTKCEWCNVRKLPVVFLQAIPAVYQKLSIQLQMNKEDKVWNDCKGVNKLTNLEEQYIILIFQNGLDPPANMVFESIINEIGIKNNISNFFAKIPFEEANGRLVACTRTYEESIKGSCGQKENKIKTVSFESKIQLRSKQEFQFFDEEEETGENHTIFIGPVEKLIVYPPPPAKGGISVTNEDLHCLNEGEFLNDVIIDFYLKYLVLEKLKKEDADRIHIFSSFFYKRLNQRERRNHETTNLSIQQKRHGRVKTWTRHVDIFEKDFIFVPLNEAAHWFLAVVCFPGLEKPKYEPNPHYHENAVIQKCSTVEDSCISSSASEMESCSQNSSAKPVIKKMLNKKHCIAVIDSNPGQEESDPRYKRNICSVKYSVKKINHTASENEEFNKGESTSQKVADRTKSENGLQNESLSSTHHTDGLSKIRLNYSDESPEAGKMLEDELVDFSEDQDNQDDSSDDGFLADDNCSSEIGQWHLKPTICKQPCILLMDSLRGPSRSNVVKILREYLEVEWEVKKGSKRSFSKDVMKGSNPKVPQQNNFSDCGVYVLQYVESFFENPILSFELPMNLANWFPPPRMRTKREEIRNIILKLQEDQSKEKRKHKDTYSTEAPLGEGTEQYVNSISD
Format: functional
The source made the active and inactive calls.
observation_type: IC50

# input Find the measured IC50: item CC1CCCN(C(=O)c2ccc(-c3ccccc3Cl)o2)C1 (centres undefined) , target or system Sentrin-specific protease 6 (Homo sapiens, UniProt Q9GZR1).
# output 27.6 µM (active)

# input Query `COn1c(-c2ccccc2)nc2ccc(Cl)cc21` next
# output 30 µM (active)

# input Query `CCOC(=O)/C(=N\Nc1ncnc2ccccc12)c1ccc(OC)cc1` next
# output 5.23 µM (active)

Attention now shifts to the item below.
# input Find the measured IC50: item `NC(=O)c1c(NC(=O)c2cc3ccccc3o2)sc2c1CCC2` , target or system Sentrin-specific protease 6 (Homo sapiens, UniProt Q9GZR1).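 Note: Luminescence-based dose-response confirmatory assay of SENP6 inhibition, following up an ultra-high-throughput screen.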
# output 17.2 µM (active)

* * *

target: Caspase-3 (Homo sapiens, UniProt P42574); type: functional;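 note: Dose-response selectivity test against caspase-3 for candidate inhibitors of sentrin-specific proteases (SENPs)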
Sequence (P42574 29-175 limits assumed): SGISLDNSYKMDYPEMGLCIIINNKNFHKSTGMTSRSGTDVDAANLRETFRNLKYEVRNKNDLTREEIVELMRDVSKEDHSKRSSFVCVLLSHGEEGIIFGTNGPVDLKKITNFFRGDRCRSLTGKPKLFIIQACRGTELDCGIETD
Sequence (P42574 176-277 limits assumed): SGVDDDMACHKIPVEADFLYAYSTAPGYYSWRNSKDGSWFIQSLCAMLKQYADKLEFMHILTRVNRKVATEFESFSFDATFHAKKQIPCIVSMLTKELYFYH
Calls of active or inactive are those of the source.
Hi there, I'd appreciate the recorded IC50 for every entry that follows.

# input Query: IC50; subject: `NC(=O)c1c(NC(=O)c2cc3ccccc3o2)sc2c1CCC2`
# output 15.1 µM (active)

# input Query CC1CCCN(C(=O)c2ccc(-c3ccccc3Cl)o2)C1 (centres undefined) next
# output 34.7 µM (active)

# input Query `CCOC(=O)/C(=N\Nc1ncnc2ccccc12)c1ccc(OC)cc1` next
# output 16.9 µM (active)

Attention now shifts to the item below.
# input Query: IC50; subject: `COn1c(-c2ccccc2)nc2ccc(Cl)cc21`
# output 20.1 µM (active)
